# system_under_test: human mGluR5a receptor (Homo sapiens, UniProt P41594)
# Construct: cDNA subcloned into pcDNA3.1(-)
# Sequence (P41594 21-1180 isoform P41594-2 limits assumed): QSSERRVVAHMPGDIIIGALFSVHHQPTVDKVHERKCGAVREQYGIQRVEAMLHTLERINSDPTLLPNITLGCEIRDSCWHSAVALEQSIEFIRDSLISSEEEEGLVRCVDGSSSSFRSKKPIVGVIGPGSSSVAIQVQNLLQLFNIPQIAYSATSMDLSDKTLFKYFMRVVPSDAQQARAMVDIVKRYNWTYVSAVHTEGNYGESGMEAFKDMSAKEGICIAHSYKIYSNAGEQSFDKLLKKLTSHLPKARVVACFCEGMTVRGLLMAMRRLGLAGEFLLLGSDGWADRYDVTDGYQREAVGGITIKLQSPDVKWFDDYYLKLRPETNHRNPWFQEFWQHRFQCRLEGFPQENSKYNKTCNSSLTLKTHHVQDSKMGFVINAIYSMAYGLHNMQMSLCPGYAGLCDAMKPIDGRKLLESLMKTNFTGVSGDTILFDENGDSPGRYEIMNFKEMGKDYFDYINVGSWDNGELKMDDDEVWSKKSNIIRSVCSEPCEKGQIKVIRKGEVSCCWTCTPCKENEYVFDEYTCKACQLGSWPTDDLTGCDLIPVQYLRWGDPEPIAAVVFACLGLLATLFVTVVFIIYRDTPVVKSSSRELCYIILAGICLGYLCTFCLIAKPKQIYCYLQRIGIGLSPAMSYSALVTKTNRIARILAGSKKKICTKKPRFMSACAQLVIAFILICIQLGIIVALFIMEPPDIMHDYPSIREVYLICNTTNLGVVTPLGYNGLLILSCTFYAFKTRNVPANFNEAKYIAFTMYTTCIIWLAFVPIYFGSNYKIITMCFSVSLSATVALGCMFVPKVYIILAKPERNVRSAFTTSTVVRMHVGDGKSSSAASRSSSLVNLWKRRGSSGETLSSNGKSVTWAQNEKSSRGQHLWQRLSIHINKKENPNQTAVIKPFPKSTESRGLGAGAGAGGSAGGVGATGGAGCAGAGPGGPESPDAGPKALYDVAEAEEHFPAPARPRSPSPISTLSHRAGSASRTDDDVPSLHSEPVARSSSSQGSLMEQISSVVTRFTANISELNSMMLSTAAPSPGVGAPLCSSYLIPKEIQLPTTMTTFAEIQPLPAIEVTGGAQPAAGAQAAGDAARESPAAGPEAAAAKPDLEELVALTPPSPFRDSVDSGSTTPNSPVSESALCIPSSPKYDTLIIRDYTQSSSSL
# procedure_summary: Cell-based functional Ca2+ mobilization assay (FDSS), potentiation of glutamate EC20 response
# experimental_parameters: maximum % effect in concentration-response curve, as percent of response to maximally effective glutamate
assay_endpoint: Emax (%)

• O=C1c2cc(COc3ccccc3F)nn2CCN1c1ccc(F)cc1 = 66
• CN(C)c1cccc(N2CCn3nc(COc4ccccc4)cc3C2=O)n1 = 76
• COc1nc(N2CCn3nc(COc4ccccn4)cc3C2=O)ncc1F = 62
• Cc1nc(N2CCn3nc(COc4ccccc4)cc3C2=O)ncc1F = 67
• O=C1c2cc(COc3ccccc3)nn2CCN1c1ccc2cccnc2c1 = 66
• O=C1c2cc(COc3ccccc3)nn2CCN1c1ccc2ncncc2c1 = 65
• O=C1c2cc(COc3ncccc3F)nn2CCN1c1ccc(F)cc1 = 60
• COc1cc(N2CCn3nc(COc4ccc(F)cc4)cc3C2=O)ccc1F = 65
• O=C1c2cc(COc3ccccc3)nn2CCN1c1cnc2cnccn12 = 72

----------
# system_under_test: human mGluR5a receptor (Homo sapiens)
# Construct: cDNA subcloned into pcDNA3.1(-)
# procedure_summary: Cell-based functional Ca2+ mobilization assay (FDSS), potentiation of glutamate EC20 response
# experimental_parameters: maximum % effect in concentration-response curve, as percent of response to maximally effective glutamate
assay_endpoint: Emax (%)

- CN(C)c1cccc(N2CCn3nc(COc4ccc(F)cc4)cc3C2=O)n1 [Example 317]: 66
- O=C1c2cc(COc3ccccc3)nn2C(CF)CN1c1ccc(F)cc1 (racemic) [Example 264]: 63
- COc1cc(N2CCn3nc(COc4ccccc4)cc3C2=O)ccc1F [Example 51]: 61
- Cc1ccc(N2CCn3nc(COc4ccccc4)cc3C2=O)cc1F [Example 62]: 60

----------
# system_under_test: human mGluR5a receptor (Homo sapiens, UniProt P41594)
# Construct: cDNA subcloned into pcDNA3.1(-)
# procedure_summary: Cell-based functional Ca2+ mobilization assay (FDSS), potentiation of glutamate EC20 response
# experimental_parameters: HEK cells transfected with human mGluR5 (H10H or H12H); in presence of EC20 glutamate; read-out: EC50
pEC50: −log10 of the molar value.
assay_endpoint: pEC50

// known answers, use as guide
* Cc1cccnc1N1CCn2nc(COc3ccccc3)cc2C1=O | 6.27
* O=C1c2cc(COc3cccc(F)c3)nn2CCN1c1ccc(F)cn1 | 6.94
* Cc1ccc(N2CCn3nc(COc4ccc(F)cc4)cc3C2=O)cc1 | 7.12
* CN(C)c1cccc(N2CCn3nc(COc4ccccn4)cc3C2=O)n1 | 6.75
* Cc1cccc(N2CCn3nc(COc4ccc(F)cc4)cc3C2=O)c1 | 7.02
* COc1ncc(C)c(N2CCn3nc(COc4ccccc4)cc3C2=O)n1 | 6.41
* O=C1c2cc(COc3ccccc3)nn2C(F)CN1c1ccc(F)cc1 (single isomer, unassigned) [Example 272] | 7.04
* O=C1c2cc(COc3ccccc3)nn2CCN1c1ccc2cccnc2c1 | 6.72

(1) Cc1cccc(OCc2cc3n(n2)CCN(c2ccc(F)cc2)C3=O)c1
(2) COc1ccnc(N2CCn3nc(COc4ccccc4)cc3C2=O)c1
Task: Returns: the label, 1 or 2 , whose recorded pEC50 is the lower number. # reply format: chosen label
Output: 2
(2: 5.96, 1: 7.02)
